- System: PPARg homodimer (NR concentration 180 nM)
- Measurement notes: PBM binding z-score (relative to random genomic background probes); higher = stronger binding; sequences stand for … in GC…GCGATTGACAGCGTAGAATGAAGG
Quantity: PBM binding z-score

Item sequence	Val
TAGCCTAGTTCATTCAGGGGCCAGTATAGAAAGC	0.283
TGTCAAAGTTCAAAGGTCACGTAAGTATCCACAC	6.73
TCGTGTAGGTTACGGGGGCATTCAGGGATGAAGA	3.1
TCTTGTAGATCGATAGAGGTTAAGAAAGTGCGCT	0.199
ACTCGGTGGACAAAGGTCAGAGCTACGCCAGTGA	2
CGTCCAAGGTCATATGAGGTCAGTGAAGACAGAT	4.65
AGTCAAAGTTCAGGACGAGGTAACGTTAAGCACG	2.35
CGAACTAGGTCGAGGACAGTGAATCTCCGCACGC	-0.11
CCTACTCGGCCAAAAAGGTCATTGATGCCGATAA	3.26
CGTCAAAGGTCATAGGAGGTCAGTGAAGACAGAT	5.41
TCTAGTTGGTCACGGAGGTCCCACACGACGGGTA	0.373
TATACAGGGTCAAAGGCCAAAGTACGAATGTCGA	4.71

---

Measured PBM binding z-score by item
- System: LXRa homodimer (NR concentration 270 nM)
- Measurement notes: PBM binding z-score (relative to random genomic background probes); higher = stronger binding; sequences stand for … in GC…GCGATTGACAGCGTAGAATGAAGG

Item sequence	PBM binding z-score
CCTGCGAGGTCATGGTCAGCTAATCTACAGTATG	1.41
ATATGTAGGTTAGCTGAGGTCATTCAGACTAGGC	6.24
CCTACTGGTCCAAGGTCATTGATCAGTCAAAGCA	2.3
GTTACAGGGTCAAGGCCAGAGTACGCGTATTGAT	0.317
AATAAAGGGTCATCGTAGGCCAGAGTACGCACAG	3.35
CGTCAAAGGTCAATGCTAGGTCAGTGAAAGCATT	4.73
TCTTGTAGATCAACAGGAGGTTAATAAAGATCGA	-0.0218
CGTCAAAGTCCAAGGTAACGTAACAGAAAGCAGC	0.0661
CTACCAAGGTCAACAAGGTCGTTGATTACTATTC	3.79
CCTACTGGGCCAAAAAGGTCATTGATGCCGATAA	3.19
CAAAATAGGTCACCGGAAGGTCAAAGTCCGCATG	5.46
ATCGAAAGGTCGACCAGGTGAGTATACACCGTTT	0.21

---

- Test system: PPARg DBDmut:RXRa IVT, anti-PPARg (DBD mutation: PPARg1 K132A/R137A, NR concentration 270 nM, RXRa partner concentration 90 nM)
- Measurement notes: PBM binding z-score (relative to random genomic background probes); higher = stronger binding; sequences stand for … in GC…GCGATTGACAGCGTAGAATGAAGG
Quantity: PBM binding z-score

Item sequence	Quantity	Val
ATATGTAGGTTACCTGGGGTCATTCAGACTAGGC	PBM binding z-score	2.71
TATACGGGGTCAAAGGCCAGAGTACGAATGTCGA	PBM binding z-score	4.68
CCTTACGGGTCACGTGGTTATAGCACGACGAGCG	PBM binding z-score	0.819
ACTTACGGGTCTACGAGGTTATAGCACGCGTATA	PBM binding z-score	0.196
CAAACCAGGTCAAGAGGTCAAAGTCCGCTTCCCG	PBM binding z-score	3.85
AGAATGAGGTTACCAAAGGTCAGGGAAACGCTTG	PBM binding z-score	1.08
TGTCAACGTTCAAAGGTAACGTAAGTATCCACAC	PBM binding z-score	0.941
GCTAGTTGGTCAGTAAAAGGTGACACACCGGTCG	PBM binding z-score	-1.22
GGAACGAGGTCAAGTTGATAGCAGAGTTTGATGG	PBM binding z-score	2.59
CGTCAAAGGTCAACTAAGGTAACGTAAAGCACGC	PBM binding z-score	1.03
CCTAGTTGGTCAAGGTCACATACGCTATAGGTAC	PBM binding z-score	1.13
GATACAGGGTCGGCTAGAGGCCAGAGTATGGAAA	PBM binding z-score	-0.784
